# target: Phosphatidylinositol 3,4,5-trisphosphate 5-phosphatase 1 (Homo sapiens)
# Sequence (Q92835 whole entry): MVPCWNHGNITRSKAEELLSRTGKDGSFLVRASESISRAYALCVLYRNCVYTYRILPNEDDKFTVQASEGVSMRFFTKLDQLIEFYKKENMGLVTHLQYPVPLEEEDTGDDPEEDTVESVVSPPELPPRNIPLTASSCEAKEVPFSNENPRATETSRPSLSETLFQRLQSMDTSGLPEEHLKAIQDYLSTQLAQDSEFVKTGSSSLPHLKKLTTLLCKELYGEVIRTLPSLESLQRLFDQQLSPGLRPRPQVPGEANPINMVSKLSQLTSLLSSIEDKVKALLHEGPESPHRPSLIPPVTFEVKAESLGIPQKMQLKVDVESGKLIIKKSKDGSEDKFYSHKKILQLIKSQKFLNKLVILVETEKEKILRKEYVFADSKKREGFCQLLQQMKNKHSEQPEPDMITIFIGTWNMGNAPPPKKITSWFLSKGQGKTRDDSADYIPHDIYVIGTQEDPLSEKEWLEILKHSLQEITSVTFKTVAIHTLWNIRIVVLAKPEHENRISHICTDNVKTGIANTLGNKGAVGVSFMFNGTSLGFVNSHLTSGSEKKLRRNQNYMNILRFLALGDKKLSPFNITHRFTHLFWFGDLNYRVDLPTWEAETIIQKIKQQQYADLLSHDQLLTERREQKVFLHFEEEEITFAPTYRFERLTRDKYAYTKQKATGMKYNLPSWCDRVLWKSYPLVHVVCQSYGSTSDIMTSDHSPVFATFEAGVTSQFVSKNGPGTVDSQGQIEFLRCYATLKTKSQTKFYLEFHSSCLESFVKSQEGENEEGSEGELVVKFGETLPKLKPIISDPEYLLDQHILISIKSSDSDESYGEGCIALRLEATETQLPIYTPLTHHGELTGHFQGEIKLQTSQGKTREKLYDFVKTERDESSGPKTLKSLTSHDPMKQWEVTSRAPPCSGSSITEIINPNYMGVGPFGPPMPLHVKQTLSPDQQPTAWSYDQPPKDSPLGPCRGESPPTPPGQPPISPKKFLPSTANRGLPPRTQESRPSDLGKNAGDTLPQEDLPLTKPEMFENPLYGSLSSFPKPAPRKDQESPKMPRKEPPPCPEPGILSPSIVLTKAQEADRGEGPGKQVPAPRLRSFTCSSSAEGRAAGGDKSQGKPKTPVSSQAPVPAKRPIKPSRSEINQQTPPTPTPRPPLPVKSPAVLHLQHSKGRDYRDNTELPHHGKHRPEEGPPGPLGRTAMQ
# test: Inhibition of recombinant SHIP-1 (unknown origin) using PtdIns(3,4,5)P3 as substrate incubated for 30 mins by malachite green solution based analysis
quantity-name: IC50 (µM)
Value expressed in µM; do not type the unit.

# count of solved cases: 2
structure-as-smiles	IC50 [µM]
O[C@H](c1cc(-c2ccccc2)nc2c1ccc1ccccc12)[C@@H]1CCCCN1	30
O[C@H](c1cc(C23CC4CC(CC(C4)C2)C3)nc2c(Cl)cc(Cl)cc12)[C@@H]1CCCCN1	63

Briefly, IC50 measured for CSc1ccc2c(c1)c(CCN)c(C)n2Cc1ccccc1Cl : 500

###

# target: Phosphatidylinositol 3,4,5-trisphosphate 5-phosphatase 1 (Homo sapiens, UniProt Q92835)
# test: Inhibition of human SHIP-1 (397 to 715 residues) catalytic domain expressed in Rosetta DE3 BL21 cells using 1-(1,2-dioctanoylphosphatidyl) inositol-3,4,5-trisphosphate as substrate by malachite green based spectramax microplate reader analysis
quantity-name: IC50

molecule	target	IC50
N#CC1=C2N=C(N)c3ccccc3N2C2=C(C(=O)CCC2)C1c1cccc([N+](=O)[O-])c1 (centres undefined)	Phosphatidylinositol 3,4,5-trisphosphate 5-phosphatase 1 (Homo sapiens, UniProt Q92835)	36.7 µM
N#CC1=C2N=C(N)c3ccccc3N2C2=C(C(=O)CCC2)C1c1nc2ccccc2s1 (centres undefined)	Phosphatidylinositol 3,4,5-trisphosphate 5-phosphatase 1 (Homo sapiens, UniProt Q92835)	> 40 µM
N#CC1=C2N=C(N)c3ccccc3N2C2=C(C(=O)CCC2)C1c1cc2ccccc2o1 (centres undefined)	Phosphatidylinositol 3,4,5-trisphosphate 5-phosphatase 1 (Homo sapiens, UniProt Q92835)	28.2 µM

Turning to the following molecule.
For this molecule ( N#CC1=C2N=C(N)c3ccccc3N2C2=C(C(=O)CCC2)C1c1cc2ccccc2s1 (centres undefined) ), measured IC50 is 40.2 µM

Entry source: ChEMBL document CHEMBL6092211
